# system under test: L-lactate dehydrogenase C chain (Mus musculus, UniProt P00342)
# Sequence (P00342 whole entry): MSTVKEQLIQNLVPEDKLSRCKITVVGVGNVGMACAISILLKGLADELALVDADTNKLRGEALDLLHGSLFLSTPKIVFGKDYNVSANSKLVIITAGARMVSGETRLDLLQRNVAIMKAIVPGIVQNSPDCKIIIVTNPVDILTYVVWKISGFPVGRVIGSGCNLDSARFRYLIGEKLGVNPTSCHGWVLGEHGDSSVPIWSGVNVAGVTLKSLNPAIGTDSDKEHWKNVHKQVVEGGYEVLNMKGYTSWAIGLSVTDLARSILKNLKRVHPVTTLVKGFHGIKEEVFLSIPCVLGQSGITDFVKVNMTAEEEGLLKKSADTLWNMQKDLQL
Listing of recorded Ki by entry.

Reference set (4 entries):
compound	readout type	meas value
CC(C)CNC(=O)C(=O)O [N-Isobutyl oxamate]	Ki	2000 µM
CCNC(=O)C(=O)O [N-Ethyl oxamate]	Ki	2 µM
CCCNC(=O)C(=O)O [N-Propyl oxamate]	Ki	12 µM
CCCCNC(=O)C(=O)O [N-Butyl oxamate]	Ki	750 µM

# input for lookup
Find Ki for CCC(C)NC(=O)C(=O)O (stereo not given) [N-sec-Butyl oxamate] on L-lactate dehydrogenase C chain (Mus musculus, UniProt P00342) and write it down.
400 µM

* * *

# system under test: UniProt:P16125
# Sequence (P16125 whole entry): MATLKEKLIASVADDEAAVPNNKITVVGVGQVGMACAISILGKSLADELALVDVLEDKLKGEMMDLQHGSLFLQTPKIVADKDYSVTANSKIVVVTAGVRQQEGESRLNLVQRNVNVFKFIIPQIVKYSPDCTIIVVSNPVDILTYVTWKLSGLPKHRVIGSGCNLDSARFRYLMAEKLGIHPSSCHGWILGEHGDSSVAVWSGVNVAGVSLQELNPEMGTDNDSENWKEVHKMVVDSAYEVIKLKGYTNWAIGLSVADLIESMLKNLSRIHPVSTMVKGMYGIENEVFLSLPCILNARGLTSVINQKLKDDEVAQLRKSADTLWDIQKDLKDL
Values of Ki strictly less than 0.9 mM map to true, and values of at least 0.9 mM map to false.

Observe how each entry below is paired with its result.
compound	assigned label
CC(C)CNC(=O)C(=O)O [N-Isobutyl oxamate]	false
CCNC(=O)C(=O)O [N-Ethyl oxamate]	true

Determine whether this compound shows Ki lower than 0.9 mM (ties excluded): CCC(C)NC(=O)C(=O)O (stereo unspecified) [N-sec-Butyl oxamate]
false

Find out if reported Ki for NC(=O)C(=O)O [carbamoylformic acid] is less than 0.9 mM
true

A record lists CCCCNC(=O)C(=O)O [N-Butyl oxamate] . Is its Ki below 0.9 mM?
false
